# Tested on: LOX IMVI
# method: Growth inhibition of human LOX IMVI cells incubated for 48 hrs by sulforhodamine B assay
# Assay type: functional
Catalogue of GI50 readings, one per entry.
readout name: GI50 (µM)

1) COc1cc2nc(-c3ccc(Cl)cc3)cc(OCCCN3CCC(O)CC3)c2cc1OC : 0.227
2) COc1cc2nc(-c3ccc(C(F)(F)F)cc3)cc(OCCCN3CCCC3)c2cc1OC : 0.116
3) COc1cc2nc(-c3ccc(C(F)(F)F)cc3)cc(OCCCN3CCC(O)CC3)c2cc1OC : 0.19
4) COc1cc2nc(-c3ccc(Cl)cc3)cc(OCCCN3CCOCC3)c2cc1OC : 0.217
5) COc1cc2nc(-c3ccc(Cl)cc3)cc(OCCCN3CCCCC3)c2cc1OC : 0.189
6) COc1cc2nc(-c3ccc(C(F)(F)F)cc3)cc(OCCCN3CCOCC3)c2cc1OC : 0.141
7) COc1cc2nc(-c3ccc(C(F)(F)F)cc3)cc(OCCCN3CCCCC3)c2cc1OC : 0.162
8) COc1cc2nc(-c3ccc(Cl)cc3)cc(OCCCN3CCCC3)c2cc1OC : 0.191

====

# Tested on: EKVX
# method: Growth inhibition of human EKVX cells at 10 uM incubated for 48 hrs by sulforhodamine B assay relative to control
# Assay type: functional
# stated conditions: read-out: GI
readout name: inhibition of growth at 10 µM

1. COc1cc2nc(-c3ccc(Cl)cc3)cc(OCCN3CCC(O)CC3)c2cc1OC : 3%
2. COc1cc2nc(-c3ccsc3)cc(OCCCN3CCC(O)CC3)c2cc1OC : 32%
3. COc1cc2nc(-c3ccco3)cc(OCCCN3CCC(O)CC3)c2cc1OC : 46%
4. COc1cc2nc(-c3ccc(Cl)cc3)cc(OCCN3CCCCC3)c2cc1OC : 3%
5. COc1cc2nc(-c3ccc(Cl)cc3)cc(OCCN3CCCC3)c2cc1OC : 3%

====

# System: LOX IMVI
# method: Growth inhibition of human LOX IMVI cells at 10 uM incubated for 48 hrs by sulforhodamine B assay relative to control
# Assay type: functional
# stated conditions: read-out: GI
# inhibition of growth at 10 µM >= 30% gives met, anything below gives not met

1) COc1cc2nc(-c3ccc(C(F)(F)F)cc3)cc(OCCN3CCCC3)c2cc1OC : not met
2) COc1cc2nc(-c3ccc(Cl)cc3)cc(OCCCN3CCC(O)CC3)c2cc1OC : met
3) COc1cc2nc(-c3ccsc3)cc(OCCCN3CCC(O)CC3)c2cc1OC : met
4) COc1cc2nc(-c3ccc(Cl)cc3)cc(OCCN3CCC(O)CC3)c2cc1OC : not met
5) COc1cc2nc(-c3ccc(Cl)cc3)cc(OCCCN3CCOCC3)c2cc1OC : met
6) COc1cc2nc(-c3ccc(Cl)cc3)cc(OCCN3CCCC3)c2cc1OC : not met
7) COc1cc2nc(-c3ccco3)cc(OCCCN3CCC(O)CC3)c2cc1OC : met
8) COc1cc2nc(-c3ccc(C(F)(F)F)cc3)cc(OCCN3CCC(O)CC3)c2cc1OC : not met
9) COc1cc2nc(-c3ccc(C(F)(F)F)cc3)cc(OCCN3CCCCC3)c2cc1OC : not met
10) COc1cc2nc(-c3ccc(Cl)cc3)cc(OCCCN3CCCC3)c2cc1OC : met
11) COc1cc2nc(-c3ccc(Cl)cc3)cc(OCCN3CCOCC3)c2cc1OC : not met
12) COc1cc2nc(-c3ccc(Cl)cc3)cc(OCCN3CCCCC3)c2cc1OC : not met
13) COc1cc2nc(-c3ccc(Cl)cc3)cc(OCCCN3CCCCC3)c2cc1OC : met
14) COc1cc2nc(-c3ccc(C(F)(F)F)cc3)cc(OCCN3CCOCC3)c2cc1OC : not met
15) COc1cc2nc(-c3cccs3)cc(OCCCN3CCC(O)CC3)c2cc1OC : not met

====

# Test system: K562
# method: Growth inhibition of human K562 cells at 10 uM incubated for 48 hrs by sulforhodamine B assay relative to control
# Assay type: functional
# stated conditions: read-out: GI
Values of inhibition of growth at 10 µM greater than or equal to 10% map to YES; values below map to NO.

1. COc1cc2nc(-c3ccc(Cl)cc3)cc(OCCCN3CCCC3)c2cc1OC : YES
2. COc1cc2nc(-c3ccco3)cc(OCCCN3CCC(O)CC3)c2cc1OC : YES
3. COc1cc2nc(-c3ccc(C(F)(F)F)cc3)cc(OCCN3CCC(O)CC3)c2cc1OC : YES
4. COc1cc2nc(-c3ccc(C(F)(F)F)cc3)cc(OCCN3CCCCC3)c2cc1OC : YES
5. COc1cc2nc(-c3ccc(Cl)cc3)cc(OCCCN3CCOCC3)c2cc1OC : YES
6. COc1cc2nc(-c3ccc(Cl)cc3)cc(OCCCN3CCC(O)CC3)c2cc1OC : YES
7. COc1cc2nc(-c3ccc(C(F)(F)F)cc3)cc(OCCN3CCOCC3)c2cc1OC : YES
8. COc1cc2nc(-c3ccc(C(F)(F)F)cc3)cc(OCCN3CCCC3)c2cc1OC : YES
9. COc1cc2nc(-c3cccs3)cc(OCCCN3CCC(O)CC3)c2cc1OC : YES
10. COc1cc2nc(-c3ccc(Cl)cc3)cc(OCCCN3CCCCC3)c2cc1OC : YES
11. COc1cc2nc(-c3ccc(Cl)cc3)cc(OCCN3CCCCC3)c2cc1OC : NO
12. COc1cc2nc(-c3ccsc3)cc(OCCCN3CCC(O)CC3)c2cc1OC : YES
13. COc1cc2nc(-c3ccc(Cl)cc3)cc(OCCN3CCCC3)c2cc1OC : NO
14. COc1cc2nc(-c3ccc(Cl)cc3)cc(OCCN3CCOCC3)c2cc1OC : NO
15. COc1cc2nc(-c3ccc(Cl)cc3)cc(OCCN3CCC(O)CC3)c2cc1OC : NO

====

Catalogue of inhibition of growth at 10 µM readings, one per entry.
# System: A498
# method: Growth inhibition of human A498 cells at 10 uM incubated for 48 hrs by sulforhodamine B assay relative to control
# Assay type: functional
# stated conditions: read-out: GI
readout name: inhibition of growth at 10 µM

1. COc1cc2nc(-c3ccc(C(F)(F)F)cc3)cc(OCCN3CCC(O)CC3)c2cc1OC : 13%
2. COc1cc2nc(-c3ccc(Cl)cc3)cc(OCCN3CCCCC3)c2cc1OC : 3%
3. COc1cc2nc(-c3ccc(Cl)cc3)cc(OCCN3CCOCC3)c2cc1OC : 3%
4. COc1cc2nc(-c3ccc(Cl)cc3)cc(OCCCN3CCC(O)CC3)c2cc1OC : 62%
5. COc1cc2nc(-c3ccc(Cl)cc3)cc(OCCN3CCC(O)CC3)c2cc1OC : 3%

====

# System: OVCAR-4
# method: Growth inhibition of human OVCAR-4 cells incubated for 48 hrs by sulforhodamine B assay
# Assay type: functional
Criterion: GI50 strictly under 4 µM. Met: T. Not met: F.

1) COc1cc2nc(-c3ccc(C(F)(F)F)cc3)cc(OCCCN3CCCC3)c2cc1OC : T
2) COc1cc2nc(-c3ccc(C(F)(F)F)cc3)cc(OCCCN3CCOCC3)c2cc1OC : F
3) COc1cc2nc(-c3ccc(Cl)cc3)cc(OCCCN3CCCC3)c2cc1OC : T
4) COc1cc2nc(-c3ccc(C(F)(F)F)cc3)cc(OCCCN3CCC(O)CC3)c2cc1OC : F
5) COc1cc2nc(-c3ccc(Cl)cc3)cc(OCCCN3CCCCC3)c2cc1OC : T
6) COc1cc2nc(-c3ccc(C(F)(F)F)cc3)cc(OCCCN3CCCCC3)c2cc1OC : T
7) COc1cc2nc(-c3ccc(Cl)cc3)cc(OCCCN3CCC(O)CC3)c2cc1OC : F

====

GI50 listing for selected compounds.
# Test system: HL-60(TB)
# method: Growth inhibition of human HL-60(TB) cells incubated for 48 hrs by sulforhodamine B assay
# Format: functional
readout name: GI50 (µM)

1. COc1cc2nc(-c3ccc(Cl)cc3)cc(OCCCN3CCCC3)c2cc1OC : 2.72
2. COc1cc2nc(-c3ccc(Cl)cc3)cc(OCCCN3CCC(O)CC3)c2cc1OC : 4.27
3. COc1cc2nc(-c3ccc(C(F)(F)F)cc3)cc(OCCCN3CCOCC3)c2cc1OC : 9.58
4. COc1cc2nc(-c3ccc(C(F)(F)F)cc3)cc(OCCCN3CCCCC3)c2cc1OC : 2.91
5. COc1cc2nc(-c3ccc(C(F)(F)F)cc3)cc(OCCCN3CCCC3)c2cc1OC : 1.84
6. COc1cc2nc(-c3ccc(C(F)(F)F)cc3)cc(OCCCN3CCC(O)CC3)c2cc1OC : 13.9

Sourced from ChEMBL document CHEMBL4732237
